// data source = patent US12187762B2

Record form. Attribute: concentration needed to cause a 40% decrease in the G′ of the hydrogel (ΔG′=−40%). Fill in for each entry.
Test: Cone-and-plate rheology of elastic modulus (G′) in thiolated hydrogel substrate
Details: 30 min incubation, dose response 0.5-10 mM
Description: 2.2. Preparation of thiolated hyaluronic acid hydrogel as a model substrate: Thiolated hyaluronic acid hydrogel (Glycosil®, ESI-BIO) was solubilized in 10% DMSO/75 mM NaCl/sodium phosphate pH 7.4 buffer, prepared using degassed water. […] Gels formed by this protocol typically yielded elastic moduli of 20-30 Pa, measured by cone-and-plate rheology. 2.3. […] The effect of test compound was measured by taking measurements every 2 min, for a period of 30 min. […]

Examples with their reported concentration needed to cause a 40% decrease in the G′ of the hydrogel (ΔG′=−40%) follow.
- Compound: "OC1C(O)[C@H](O)C(CS)O[C@@H]1O[C@H]1OC(CS)[C@@H](O)C(O)C1O (stereo partly drawn) [Compound 5, 6,6′-dithio-6,6′-dideoxy-α,α-trehalose]"
  Measured Result: "1.0 mM"
- Compound: "CC(=O)N[C@@H](CS)C(=O)O [NAC, N-acetylcysteine, reference compound]"
  Measured Result: "8 mM"
- Compound: "CO[C@]1(CS)O[C@H](CS)C(O)C1O (stereo partly shown) [Compound 9]"
  Measured Result: "0.7 mM"

Then this compound:
Query: Please look at this compound and report its concentration needed to cause a 40% decrease in the G′ of the hydrogel (ΔG′=−40%): OC1C(O)[C@H](S)OC(CS)[C@@H]1O (stereo partly drawn) [Compound 1, 1,6-dithio-6-deoxy-β-D-galactopyranose]
Reply: 0.7 mM
